Source of measurements: ChEMBL document CHEMBL1201862

System: HL-60
protocol: NCI tumour cell line growth inhibition, 48 h
The source made the active and inactive calls. Cut-off read from the data, not from the text of the source: active = GI50 up to about 1.1 µM and inactive = higher.
observed-property: GI50

O=c1oc2ccccc2cc1-c1cc2ccccn2c1 : > 100 µM (inactive)
CCC1c2cc3n(c(=O)c2COC1O)Cc1c-3nc2ccccc2c1Cl (stereo not given) : 26.9 µM (inactive)
CC(=O)OC1CC[C@@]2(C)C(=CC[C@@H]3[C@@H]2CC[C@]2(C)Nc4c(cnn4-c4ccc(F)cc4)C[C@@H]32)C1 (stereo not given in full) : 2.93 µM (inactive)
CCCCCCC(=O)C/C(CCC(=O)N(Cc1ccccc1)Cc1ccccc1)=N\Nc1ccc([N+](=O)[O-])cc1[N+](=O)[O-] : 32.2 µM (inactive)
Cc1ccccc1NC(=O)/C(C#N)=N\Nc1[nH]cnc1C(N)=O : > 100 µM (inactive)

For O=C1/C(=C/c2ccc(O)c(O)c2)CC/C1=C\c1ccc(O)c(O)c1 , what is its reported GI50?
3.39 µM (inactive)

# get_value(readout='GI50', item= N#C/C(=C/N1C(=O)/C(=C/c2ccc([N+](=O)[O-])cc2)SC1=S)c1nc2ccccc2s1 )
17.5 µM (inactive)

What does the record list as GI50 for Cc1ccc(C2(N3CCOCC3)OC(C)(C)c3cccc4cccc2c34)cc1 (stereo not given) ?
34.9 µM (inactive)

# GI50 lookup, item CCOC(=O)c1csc(NC(=O)CN2CCOCC2)n1
> 100 µM (inactive)

Which measured GI50 value corresponds to Cc1nc(-n2nc(-c3ccccc3)cc2-c2ccccc2)sc1C(/C=C/c1ccc([N+](=O)[O-])cc1)=N/NC(=O)c1ccncc1 ?
11 µM (inactive)

What value of GI50 has been reported for the following compound? c1ccc2[nH]c(-c3cscn3)nc2c1
> 100 µM (inactive)

Any idea what GI50 was measured for Cc1c(OCc2cccc3ccccc23)ccc2c(=O)cc(SCCN3CCOCC3)oc12 ?
> 100 µM (inactive)

---

Entries and their GI50 values follow.
System: A498
protocol: NCI tumour cell line growth inhibition, 48 h
The source made the active and inactive calls. Cut-off read from the data, not from the text of the source: active = GI50 up to about 1.1 µM and inactive = higher.

O=C(Cc1nc2ccccc2o1)C(=O)Nc1cccc(C(F)(F)F)c1 : > 100 µM (inactive)
NC(=O)NC(=O)c1cccc(NC(=O)CI)c1 : 0.231 µM (active)
O=[N+]([O-])C(=C1NCCN1)/C(Cl)=C(\Cl)Br : > 44.9 µM (inactive)

Lab note: need GI50 with A498 for entry COc1cc(Cl)c2c3c(c(C(C)=O)oc13)CCC2 , please look it up.
> 100 µM (inactive)

What measured GI50 is associated with C[C@H](CCc1nc(C#N)c(N)o1)[C@H]1CC[C@H]2[C@@H]3[C@@H](O)CC4C[C@@H](O)CC[C@]4(C)[C@H]3C[C@@H](O)[C@]12C (stereo partly specified) on A498?
39.1 µM (inactive)

Request: GI50, test system A498, entry O=c1[nH]nc(Cc2ccccc2)n1/N=C/c1ccc(/C=N/n2c(Cc3ccccc3)n[nH]c2=O)cc1
> 100 µM (inactive)

Find the measured GI50: item Cc1ccc([Se][Se]c2ccc(C)cc2)cc1 , target or system A498.
> 100 µM (inactive)

Look up GI50 with A498 for this molecule: O=C(c1ccccc1)N1N=C(C(F)(F)F)CC1(O)C(F)(F)F (stereo unspecified)
> 100 µM (inactive)

Kindly state the measured GI50 obtained for Cc1cccc(/N=N/c2c(C)nn(C(=O)CC(=O)Nc3ccccc3)c2C)c1 with A498.
> 100 µM (inactive)

---

System: NCI-H460
protocol: NCI tumour cell line growth inhibition, 48 h
Calls of active or inactive are those of the source. Cut-off read from the data, not from the text of the source: active = GI50 up to about 1.1 µM and inactive = higher.
Classes to choose from: active, inactive

Solved cases below.
O=c1[nH]c(=O)n(COCc2ccccc2)c2ccccc12 : inactive
N#C/C(=C\Nc1ccccn1)C(=O)C1CC1 : inactive
O=C(CC(O)(C(F)(F)F)C(F)(F)F)C(CCCl)C(O)(C(F)(F)F)C(F)(F)F (centres undefined) : inactive
CC(=O)CCCCO : inactive
COc1ccc(Nc2nc3cc(C(F)(F)F)ccc3n3cccc23)cc1OC : inactive

So what was the verdict on O=c1c2ccccc2c2ccccc2c(=O)n1-c1cc2c3ccccc3ccc2c2ccccc12 in this test?
inactive

How did this test come out for Cc1cc(C)c(C2CC(O)C(CO)O2)cc1C (centres undefined) ?
inactive

// outcome(item) with item = CC(C)C1N2CCCCC2[C@@H]2c3[nH]c4ccccc4c3CCN12 (some centres undefined)
inactive

Called result for N#Cc1c(-c2ccco2)cc(-c2ccccc2)nc1O
inactive

Which outcome was assigned to CC(N/N=C(\S)N1CCCCCC1)c1cccnn1 (centres undefined) in this test?
active

Call for entry CCC(=O)C(CCN1CCC(N2C(=O)C(CCC#N)c3ccccc32)CC1)(c1ccccc1)c1ccccc1 (centres undefined) :
inactive

Hi, sorry to bother you, what did the test record for C=CCn1c(S)nnc1C12CC3CC(CC(C3)C1)C2 ?
inactive

---

Test system: NCI/ADR-RES
protocol: NCI tumour cell line growth inhibition, 48 h
The source made the active and inactive calls. Cut-off read from the data, not from the text of the source: active = GI50 up to about 1.1 µM and inactive = higher.
Lab note: assign the record to one of 1 for active, 0 for inactive

Some solved entries appear below for comparison.
CO[C@@]12C[C@@H](CNC(=O)c3cc(Br)c[nH]3)O[C@@H]1NC(=O)N2 : 0
CCn1sc2ccccc2c1=O : 0
O=C(C/C(=N/O)C(F)(F)F)c1cccs1 : 0
Cc1cc(Cl)ccc1OCC(=O)Oc1c(Cl)c(Cl)c(Cl)c(Cl)c1Cl : 0

Lab note: next molecule to report on.
# fetch the recorded call for c1ccc(-c2nc3ccccc3n3c(CN4CCCCC4)nnc23)cc1 here
0

---

Some molecules, each annotated with its measured GI50.
Tested on: K562
protocol: NCI tumour cell line growth inhibition, 48 h
The source made the active and inactive calls. Rule as the data show it: active = GI50 up to about 1.1 µM and inactive = higher.

C#C[C@]1(O)CC[C@H]2[C@@H]3CCC4=C/C(=N/OC(=O)c5cccc6cc7ccccc7nc56)CC[C@@H]4[C@H]3CC[C@@]21CC : > 100 µM (inactive)

Give the measured GI50 of C=C(C)CCC(O)[C@](C)(O)[C@H]1[C@H](O)C[C@@]2(C)[C@@H]3CCc4c(cc(OC5OC(CO)C(O)C(O)C5O)c(O)c4C)C3(C)C(=O)C[C@]12C (some centres undefined) .
> 100 µM (inactive)

Endpoint output: GI50 of N#CC1(C#N)C2(c3ccccc3)OC(c3ccccc3)(c3cc4ccccc4cc32)C1(C#N)C#N . Value?
2.86 µM (inactive)

Look up GI50: O=C(O)CCc1nc2ccccc2[nH]1
> 100 µM (inactive)

What does the record list as GI50 for COc1cc(/C=N\O)cc(/C=N/O)c1O ?
71.9 µM (inactive)

Fill in the blank: the reported GI50 of O=S(=O)(Nc1nc2ccccc2nc1Nc1cccc2ccccc12)c1ccccc1 is ____.
> 100 µM (inactive)

Return reported GI50; argument: CCN(CC)Cc1cc(Nc2ccnc3ccc4c(nnn4C)c23)ccc1O
5.24 µM (inactive)

Recorded GI50 of Cc1c(OCc2cccc3ccccc23)ccc2c(=O)cc(SCCN3CCOCC3)oc12 , please.
> 100 µM (inactive)

Looking for the measured GI50 of O=[N+]([O-])/C=C/c1ccc2ccccc2c1 , can you help?
3.78 µM (inactive)

---

Tested on: SK-MEL-28
protocol: NCI tumour cell line growth inhibition, 48 h
The source made the active and inactive calls. Rule as the data show it: active = GI50 up to about 1.1 µM and inactive = higher.
observed-property: GI50

Example entries begin here.
O=C1NC(N2CCOCC2)=N/C1=C\c1ccc(O)cc1 : > 100 µM (inactive)
Cc1ccccc1NC(=O)/C(C#N)=N\Nc1[nH]cnc1C(N)=O : 28.7 µM (inactive)
CC1CC(N2CCOCC2)=Nc2ccccc2N1Cc1ccccc1 (stereo unspecified) : 49.1 µM (inactive)
c1ccc2c(c1)CCc1c(-c3n[nH]c4c3CCc3ccccc3-4)n[nH]c1-2 : > 100 µM (inactive)
O=C1NC(=O)C(C(c2ccc(Cl)cc2)C2C(=O)NC(=O)NC2=O)C(=O)N1.c1ccncc1 : > 100 µM (inactive)

Please look up its GI50: OC(c1cc2ccccc2[nH]1)C1(c2cccnc2)SCCCS1 (stereo unspecified)
> 100 µM (inactive)

Using the record for CSc1nc(C#N)c(N)n1C , report its GI50.
> 100 µM (inactive)

Sample CCC1c2cc3n(c(=O)c2COC1O)Cc1c-3nc2ccccc2c1Cl (stereo unspecified) — what was its GI50?
> 100 µM (inactive)

What does the record list as GI50 for COc1ccc(/C=C/C(=O)Oc2cc(O)cc(O)c2)cc1 ?
> 100 µM (inactive)

Look at this molecule and give its reported GI50. C[C@]12Cc3cn[nH]c3C(=O)C1CC[C@@H]1C2CC[C@@]2(C)C1CC[C@]2(C)O (stereo partly specified)
> 100 µM (inactive)

Endpoint output: GI50 of Cc1cc2c(SCc3ccccc3Cl)nc(N)nc2nc1C . Value?
> 100 µM (inactive)

Entry Cc1nc(-n2nc(-c3ccccc3)cc2-c2ccccc2)sc1C(/C=C/c1ccc([N+](=O)[O-])cc1)=N/NC(=O)c1ccncc1 has what GI50?
31.1 µM (inactive)

Would you kindly share the measured GI50 for CC1OC(OC2C(O[C@H]3CC[C@@]4(C)C(=CC[C@H]5[C@@H]6C[C@@H]7O[C@]8(CC[C@@H](C)CO8)[C@@H](C)[C@@H]7[C@@]6(C)CC[C@@H]54)C3)OC(CO)C(O)C2OC2OC(CO)C(O)C(O)C2O)C(O)C(O)C1O (stereo partly specified) ?
1.9 µM (inactive)
